target: APOL1 G2 (Homo sapiens, UniProt O14791, DEL388-389); construct: expressed in transfected cells; host or cells: HEK293 T-REx clonal line stably expressing GCaMP6f (HEK T-REx/GCaMP6f/APOL1 G2 K6.3), doxycycline induced; assay: APOL1-mediated calcium transport (calcium influx) assay, HEK T-REx/GCaMP6f/APOL1 G2 K6.3 cells, FLIPR TETRA; assay type: cell-based; conditions: prevention of calcium influx; geometric mean of at least 2 assay runs; † = average of a technical replicate from a single assay run
Sequence (O14791 with tags, fused parts or gaps DEL388-389): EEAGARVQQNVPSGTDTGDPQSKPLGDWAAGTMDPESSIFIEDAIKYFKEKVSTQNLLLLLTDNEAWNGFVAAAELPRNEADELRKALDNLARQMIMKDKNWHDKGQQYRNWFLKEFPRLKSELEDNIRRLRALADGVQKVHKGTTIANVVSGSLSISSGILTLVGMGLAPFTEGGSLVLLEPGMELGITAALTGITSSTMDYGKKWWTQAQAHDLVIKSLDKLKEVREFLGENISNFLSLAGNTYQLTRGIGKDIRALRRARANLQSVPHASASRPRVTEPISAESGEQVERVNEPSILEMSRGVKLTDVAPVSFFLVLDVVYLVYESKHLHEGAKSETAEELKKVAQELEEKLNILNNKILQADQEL
With a cut-off of 800 nM, any AC50 strictly below it is called true (1); any AC50 meeting it or above is called false (0).

Incoming: Could you please tell me whether AC50 recorded for O=C1Nc2ccc(Cl)cc2C12CCN(CCOc1ccc(C3CCCS3(=O)=O)cc1)CC2 (single isomer, unassigned) [Compound 177] is less than 800 nM?
Outgoing: true (1)
